Reported values of 3' UTR reporter interaction score for individual entries
# Tested on: ZEB2
# assay-info: 3' UTR reporter interaction score (median-centred robust z-score of log2 firefly/Renilla activity); higher = less repression of the 3' UTR reporter
# assay-context: HEK293T; 48 h
Respond using a number only.

Would you please look over these solved cases?
{"polymer-sequence": "GCGACCCAUACUUGGUUUCAG", "3' UTR reporter interaction score": -0.392}
{"polymer-sequence": "GGCAGGUUCUCACCCUCUCUAGG", "3' UTR reporter interaction score": -0.268}
{"polymer-sequence": "AGCUGUCUGAAAAUGUCUU", "3' UTR reporter interaction score": -0.552}
{"polymer-sequence": "GAGUGCCUUCUUUUGGAGCGU", "3' UTR reporter interaction score": -0.377}

Indicate the recorded 3' UTR reporter interaction score value for this sequence: UUUUGCACCUUUUGGAGUGAA
-4.16

Indicate the recorded 3' UTR reporter interaction score value for this sequence: GAGCCAGUUGGACAGGAGC
-0.65

Indicate the recorded 3' UTR reporter interaction score value for this sequence: UAGUAGACCGUAUAGCGUACG
2.18

Indicate the recorded 3' UTR reporter interaction score value for this sequence: AAACCGUUACCAUUACUGAGUUU
0.377

Indicate the recorded 3' UTR reporter interaction score value for this sequence: AACAUUCAACCUGUCGGUGAGU
1.39

Each recorded value in this set is attributed to the supplement of paper PMC5844555.
